# Assay Method Text: Pharmacokinetic study of Compound A alone and in combination with Indinavir in healthy human males (Example 11)
# Type: in vivo
# Measurement Parameters: male, human, plasma, po, 200 mg Compound A + 1200 mg IDV (Indinavir) co-administered, single oral dose, fasted, n=6; arithmetic mean (CV %)

[
  {
    "Smiles Record": "CC(C)(C)NC(=O)[C@@H]1CN(Cc2cc3ccccc3o2)CCN1C[C@@H](O)C[C@@H](Cc1ccccc1)C(=O)N[C@H]1c2ccccc2C[C@H]1O",
    "AUC / µM·h": 9.22
  }
]

---

# Assay Method Text: Pharmacokinetic study of Compound A alone and in combination with Indinavir in healthy human males (Example 11)
# Type: in vivo
# Measurement Parameters: male, human, plasma, po, 600 mg, 600 mg single oral dose, suspension of sulfate salt, fasted, n=8; plasma 12 hours after dosing; read-out: C12 rs

[
  {
    "Molecule": "CC(C)(C)NC(=O)[C@@H]1CN(Cc2cc3ccccc3o2)CCN1C[C@@H](O)C[C@@H](Cc1ccccc1)C(=O)N[C@H]1c2ccccc2C[C@H]1O [Compound A]",
    "concentration at 12 h / nM": 39
  }
]
